- System: LXRa:RXRa (NR concentration 270 nM, RXRa partner concentration 90 nM)
- protocol details: PBM binding z-score (relative to random genomic background probes); higher = stronger binding; sequences stand for … in GC…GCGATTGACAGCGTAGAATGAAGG
reported property: PBM binding z-score
Answer with a bare number; do not write a unit.

A selection of reference data follows.
- AATACAGGGTCATCGTAGGCCAGAGTCCGCACAG: 6.35
- CCGAGTAGGTTATGTGGCATTCAGGCAACGGTGA: 0.353
- CGTCCAAGGTCAAAGTCAGTGAAAGAGACTCGAA: 5.36

For `TCGAGTAGGTTAGGGGCATTCTGAATGGCGTCGA` the sequence record lists PBM binding z-score as 0.0463

For `TCATATAGGTAAAGGTGAAACTCGAACGATATGA` the sequence record lists PBM binding z-score as 1.52

For `CGTCCAAGGTCAGGGAGGTCAGTGAATGCCGAGT` the sequence record lists PBM binding z-score as 5.28

For `CCTAGCAGGCCAGGGTCACTCTAGCATTTCGCTT` the sequence record lists PBM binding z-score as 1.43

For `CTAACGAGGGCATGAGTTGATAGCAAATGCCGAT` the sequence record lists PBM binding z-score as 0.409

For `TCTATTAGTTGGTTAGGGCAACCGAAACAGCGGA` the sequence record lists PBM binding z-score as 0.576

For `CCAGACAGGCGAAAGGTAACTCAGTCTGGTACGC` the sequence record lists PBM binding z-score as -0.478

For `AGAATCAGGTTATACGTAGATCAGGGAAGAAAGT` the sequence record lists PBM binding z-score as 0.893

For `TCGAGTAGGTTAGACGGGGCATTCAGCCAACATA` the sequence record lists PBM binding z-score as 0.00602

---

- System: PPARg:RXRa 270nM:90nM, anti-RXR (NR concentration 270 nM, RXRa partner concentration 90 nM)
- protocol details: PBM binding z-score (relative to random genomic background probes); higher = stronger binding; sequences stand for … in GC…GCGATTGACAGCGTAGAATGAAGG
# thresholds on PBM binding z-score define classes: low = under 2, middle = from 2 up to 3, high = 3 and over

Record excerpt, results attached:
- ATCGAAAGGTCGGGAGGTGAGTATACAGAAAGGC: middle
- CAAACTAGGTCAAGGTCAAGGTCGGTTTGTGCCA: high
- GCTCGGAGGACAAGGACAGAGCTTTGTCCGTAGA: low
- TCTAGTTTGTCAAAGGTCACACACTCGAAATGCG: high
- CATACAGGGTCAGTTAGGCCAGAGTAGGGACGGC: low
- AGTCAAAGTTCATCTACGTAACGTAAGATATGCT: high
- TATACAGGGTCAAAGGCCAGTGTACGAATGTCGA: high
- ATCCCTAGGTAAAGATAGTTCAGTGAATGCAAAT: low

Task: For `ATCTCTAGGTAAAAAGTTCAGTGAAAGAGAGGAC` , which PBM binding z-score bin applies?
Output: high

Task: For `GCTGCTAGGTCAACTGATCGTCAGCTAAAGCTCG` , which PBM binding z-score bin applies?
Output: high

Task: For `CTAGACAGGTGAGAAGGTAACTCAGCCTCGATTA` , which PBM binding z-score bin applies?
Output: low

Task: For `GCTCGGAGGACAAGGCCAGAGCTTTGTCCGTAGA` , which PBM binding z-score bin applies?
Output: low

Task: For `CGTCCAAGGTTAGCAGGTCAGTGAAAGCGACGTG` , which PBM binding z-score bin applies?
Output: middle

Task: For `CCTTACGGGTCACTCCGGGTTATAGCATCGGAGT` , which PBM binding z-score bin applies?
Output: high

Task: For `GTAACGAGGGCATTCGAGTTGATAGCATGGCGAT` , which PBM binding z-score bin applies?
Output: low

Task: For `GATACAGGGTCAAGGCCGGAGTACGCGTATTGAT` , which PBM binding z-score bin applies?
Output: high

Task: For `GCATATAGGTAATACAAGGTGAAAGGCCGATTGT` , which PBM binding z-score bin applies?
Output: middle

Task: For `TCATATTGGTAAACAGGTGAAAGTCCGTAAGTTA` , which PBM binding z-score bin applies?
Output: middle

Task: For `GGTTACGGGTCAAAGGTTATAGCATGAATAGAAT` , which PBM binding z-score bin applies?
Output: high

Task: For `TCATATCGGTAAAGGTGAAAGTCGAACGATATGA` , which PBM binding z-score bin applies?
Output: high
